# System: MDA-MB-231 breast
# PROTOCOL_SUMMARY: NCI tumour cell line growth inhibition, 48 h
MEASUREMENT_NAME: log10 of TGI (log10 of the value in µM)

• CC(=O)O[C@@H]1CC2C(C)(C)CCCC2(C)C2=C1C(=O)C(C(C)C)=CC2=O (stereo partly drawn) = 0.50
• CN(C)C(=S)N=Nc1c(O)[nH]c2ccccc12 = 1.25
• Clc1nc(Cl)c2ncn(Cc3ccc(COc4cccc(OCc5ccc(Cn6cnc7c(Cl)nc(Cl)nc76)cc5)c4)cc3)c2n1 = 1.73
• CCc1cc(O)c(Cl)c(C)c1Cl = 1.91
• C[C@H]1[C@H](C)CC[C@]2(C(=O)O)CC[C@]3(C)C(=CC[C@@H]4[C@@]5(C)C/C(=C/c6cccnc6)[C@H](O)C(C)(C)[C@@H]5CC[C@]43C)[C@H]12 = 1.86
• COC(=O)/N=[N+](\[O-])C(c1ccc(OC)cc1)C1CCCCC1 (stereo not drawn) = 1.51
• O=C(CSCC(=O)N/N=C\c1ccc(-c2ccccc2)cc1)N/N=C\c1ccc(-c2ccccc2)cc1 = 1.40
• COc1ccc2c3c1OC1c4[nH]c5ccccc5c4CC4(O)C(C2)N(C)CCC314 (stereo not drawn) = 1.89
• CC12Cc3cc4c(cc3C1(c1ccc([N+](=O)[O-])cc1)OCCO2)OCO4 (stereo not drawn) = 1.63
• Cn1c2ccccc2c(=NNc2ccc(C(=O)O)cc2)c2ccccc21 = 1.70
• CO/N=C(\C)c1ccc(Nc2cc(-c3ccccc3)nc3c(O)cccc23)cc1 = 1.49
• CCN(Cc1ccccc1OC)c1ccc(CO)c(Cl)c1 = 1.40
• COc1ccc2c3c(c(=O)n(C)c2c1OC)C=CC(C)(C)O3 = 1.73
• CN(C)c1ccc2cc(-c3ccccc3F)c(N)nc2c1 = 1.29
• OC1COC(n2c3ccc(Br)cc3c3ccc4c5ccccc5[nH]c4c32)C(O)C1O (stereo not drawn) = 0.87
• COc1ccc2c(c1)c1c(n2CCN2CCCCC2)-c2ccccc2CC1 = 1.50
• CC(C)(C)c1ccc(S(=O)(=O)N[C@H]2CC[C@H]3[C@@H]4CCc5cc(OS(=O)(=O)O)ccc5[C@H]4CC[C@]23C)cc1 = 0.63
• COCCOCCOC1=C(Cl)C(=O)c2c(O)ccc(O)c2C1=O = 0.61

---

# Test system: UACC-257 melanoma
# PROTOCOL_SUMMARY: NCI tumour cell line growth inhibition, 48 h
MEASUREMENT_NAME: TGI

• COc1ccc2c3c(c(=O)n(C)c2c1OC)C=CC(C)(C)O3 = > 100 µM
• COc1cccc(NC(=O)CC(=O)N2N=C(C)C(N=Nc3ccc(S(=O)(=O)c4ccc(N=NC5C(=O)N(C(=O)CC(=O)Nc6cccc(OC)c6)N=C5C)cc4)cc3)C2=O)c1 (stereo not given) = > 100 µM
• CO/N=C(\C)c1ccc(Nc2cc(-c3ccccc3)nc3c(O)cccc23)cc1 = 32.3 µM
• CCN(Cc1ccccc1OC)c1ccc(CO)c(Cl)c1 = 0.498 µM
• CC12CCC(=O)C=C1CCC1C2C(O)CC2(C)C(c3csc(N)n3)CCC12 (stereo not given) = > 100 µM
• N#Cc1ccc(OCc2nc3cc(C(F)(F)F)ccc3nc2-c2ccccc2)cc1 = > 100 µM
• S=C1N=C(Cl)C2(NN1)c1ccccc1-c1ccccc12 = > 10 µM
• O=C(CN1CCN(c2ccccc2)CC1)N1CCc2c([nH]c3ccccc23)C1c1cccnc1 (stereo not given) = > 100 µM
• CC(=O)Nc1ccc2[nH]c(-c3cccc(F)c3)cc(=O)c2c1 = > 100 µM
• CNC(=O)c1[nH]cnc1/N=N/N(C)N = > 100 µM
